The entries below come with measured half-life values attached.
Test: Mouse in vivo PK study
Settings: mouse, plasma; male CD1 mice, 10 mg/kg PO; read-out: T1/2 (PO) (converted)
Enter your answer as a number in min; do not include the unit.

Some solved entries appear below for comparison.
C=CC(=O)Nc1cc(Nc2nccc(-c3cnc4c(c3)c(C)cn4C)n2)c(OC)cc1N(C)CCN(C)C 304
C=CC(=O)Nc1cc(Nc2nccc(-c3cnc4c(c3)c(Cl)cn4C)n2)c(OC)cc1N(C)CCN(C)C 366
C=CC(=O)Nc1cc(Nc2nccc(-c3cc(C#N)cc4c3cnn4C)n2)c(OC)cc1N(C)CCN(C)C 213

So what does the record say about half-life for C=CC(=O)Nc1cc(Nc2nccc(-c3cc(C#N)c4c(c3)c(C)cn4C)n2)c(OC)cc1N(C)CCN(C)C ?
154

* * *

Molecular target: IGF-1R (Homo sapiens, UniProt P08069)
Construct: purchased CARNA BIOSCIENCE 08-141
Sequence (P08069 959-1367 limits assumed): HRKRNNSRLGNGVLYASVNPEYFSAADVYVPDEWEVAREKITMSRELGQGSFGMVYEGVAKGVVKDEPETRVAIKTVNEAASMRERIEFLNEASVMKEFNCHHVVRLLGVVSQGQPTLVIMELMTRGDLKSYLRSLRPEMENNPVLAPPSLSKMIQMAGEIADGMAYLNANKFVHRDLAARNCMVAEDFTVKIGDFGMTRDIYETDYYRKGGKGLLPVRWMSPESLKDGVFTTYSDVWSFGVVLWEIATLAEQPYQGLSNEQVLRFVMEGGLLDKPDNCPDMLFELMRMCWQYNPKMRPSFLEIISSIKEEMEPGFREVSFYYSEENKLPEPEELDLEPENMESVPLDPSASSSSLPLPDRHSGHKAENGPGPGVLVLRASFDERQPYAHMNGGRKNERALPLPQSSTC
Test: IGF-1R inhibition assay (Caliper mobility shift)
Assay type: biochemical
Conditions: enzyme assay
Binning scheme for IC50: lo (below 800 nM), med (800 nM to below 2000 nM), hi (2000 nM or more)

Worked set:
compound	class-label
C=CC(=O)Nc1cc(Nc2nccc(-c3cc(C#N)c4c(c3)c(C)cn4C)n2)c(OC)cc1N(C)CCN(C)C	med
C=CC(=O)Nc1cc(Nc2nccc(-n3nc(N(C)C)c4ccccc43)n2)c(OC(F)F)cc1N(C)CCN(C)C	med
C=CC(=O)Nc1cc(Nc2nccc(-n3nc(N(C)C)c4ncccc43)n2)c(OC(F)F)cc1N(C)CCN(C)C	med

Form: Item = C=CC(=O)Nc1cc(Nc2nccc(-c3cn(C)c4ccccc34)n2)c(OC)cc1N(C)CCN(C)C [AZD9291, reference compound] ; Class = ?
lo

State the class of the compound shown: C=CC(=O)Nc1cc(Nc2nccc(-c3c[nH]c4ccccc34)n2)c(OC)cc1N(C)CCN(C)C [AZD5104, reference compound]
lo

Lab log: C=CC(=O)Nc1cc(Nc2nccc(-c3cc(C#N)c4ccn(C)c4c3)n2)c(OC)cc1N(C)CCN(C)C — assign IC50 category
lo

Which bin, given its IC50, does C=CC(=O)Nc1cc(Nc2nccc(-c3cc(C#N)cc4c3ccn4C)n2)c(OC)cc1N(C)CCN(C)C occupy?
med

Band for C=CC(=O)Nc1cc(Nc2nccc(-n3nc(NCC)c4ncccc43)n2)c(OCC(F)F)cc1N(C)CCN(C)C ?
hi

Which category does the recorded IC50 put C=CC(=O)Nc1cc(Nc2nccc(-n3nc(N(C)C)c4ncccc43)n2)c(OCC(F)F)cc1N(C)CCN(C)C in?
med

Consider C=CC(=O)Nc1cc(Nc2nccc(-n3nc(N(C)C)c4cc(Cl)sc43)n2)c(OC)cc1N(C)CCN(C)C . To which IC50 class does it belong?
hi

Which class does C=CC(=O)Nc1cc(Nc2nccc(-n3nc(N(C)C)c4ccsc43)n2)c(OC)cc1N(C)CCN(C)C fall in?
med

* * *

Tested on: H1975 cells
Test: H1975 inhibition assay (cell proliferation, CellTiter-Glo, 72 h)
Format: cell-based, human
Details: cellular proliferation, NCI-H1975 cells, double mutant EGFR, listed as AZD-5104, read-out: NCI-H1975 IC50 (nM) DM
experimental-readout: IC50

Please tell me: IC50 of C=CC(=O)Nc1cc(Nc2nccc(-c3c[nH]c4ccccc34)n2)c(OC)cc1N(C)CCN(C)C [AZD5104, reference compound] , system H1975 cells?
3.9 nM

* * *

Listed here: items and their measured F.
Experiment: Mouse in vivo PK study
Conditions: male CD1 mice, 1 mg/kg IV; 10 mg/kg PO
Structures can show the parent of a compound that is named as a salt.
The response must be a number in % with no trailing unit.

molecule	experimental-readout	unit-symbol	numeric-result
C=CC(=O)Nc1cc(Nc2nccc(-n3nc(N(C)C)c4cc(Cl)sc43)n2)c(OC)cc1N(C)CCN(C)C	F	%	46.7

Look up F: C=CC(=O)Nc1cc(Nc2nccc(-c3cc(C#N)cc4c3ccn4C)n2)c(OC)cc1N(C)CCN(C)C
15

// F lookup, key: [2H]C([2H])([2H])N(CCN(C)c1cc(OC)c(Nc2nccc(-c3cc(C#N)c4c(c3)c(C)cn4C)n2)cc1NC(=O)C=C)C([2H])([2H])[2H] [Example 27, mesylate]
31.4

If you can, please state the reported F value of C=CC(=O)Nc1cc(Nc2nccc(-c3cnc4c(c3)c(C)cn4C)n2)c(OC)cc1N(C)CCN(C)C .
29.3

Would you kindly share the measured F for C=CC(=O)Nc1cc(Nc2nccc(-c3cnc4c(c3)c(Cl)cn4C)n2)c(OC)cc1N(C)CCN(C)C ?
17.3

GET /values?readout=F&item= C=CC(=O)Nc1cc(Nc2nccc(-c3cc(C#N)cc4c3cnn4C)n2)c(OC)cc1N(C)CCN(C)C
23.1

* * *

Experiment: Mouse in vivo PK study
Conditions: mouse, plasma; male CD1 mice, 1 mg/kg IV
Where a name gives a salt, the structure may show the parent alone.
experimental-readout: AUC (ng·h/mL)
Your answer should be a plain number; it is taken to be in ng·h/mL.

compound	AUC (ng·h/mL)
[2H]C([2H])([2H])N(CCN(C)c1cc(OC)c(Nc2nccc(-c3cc(C#N)c4c(c3)c(C)cn4C)n2)cc1NC(=O)C=C)C([2H])([2H])[2H] [Example 27, mesylate]	297
C=CC(=O)Nc1cc(Nc2nccc(-n3nc(N(C)C)c4cc(Cl)sc43)n2)c(OC)cc1N(C)CCN(C)C [Example 6]	168
C=CC(=O)Nc1cc(Nc2nccc(-c3cc(C#N)cc4c3cnn4C)n2)c(OC)cc1N(C)CCN(C)C [Example 9]	249
C=CC(=O)Nc1cc(Nc2nccc(-c3cc(C#N)cc4c3ccn4C)n2)c(OC)cc1N(C)CCN(C)C [Example 4]	96
C=CC(=O)Nc1cc(Nc2nccc(-c3cnc4c(c3)c(Cl)cn4C)n2)c(OC)cc1N(C)CCN(C)C [Example 13]	169

Moving on to the next compound.
Request the reported AUC associated with C=CC(=O)Nc1cc(Nc2nccc(-c3cnc4c(c3)c(C)cn4C)n2)c(OC)cc1N(C)CCN(C)C [Example 11]
153

* * *

# IC50 per record follows
System: A431 cells
Assay: A431 inhibition assay (cell proliferation, CellTiter-Glo, 72 h)
Format: cell-based, human
Conditions: cellular proliferation, wild type EGFR, read-out: A431 IC50 (nM) WT
State just the number; it will be interpreted in nM.

compound	numeric-result
C=CC(=O)Nc1cc(Nc2nccc(-c3c[nH]c4ccccc34)n2)c(OC)cc1N(C)CCN(C)C [AZD5104, reference compound]	95.2
C=CC(=O)Nc1cc(Nc2nccc(-c3cc(C#N)c4c(c3)c(C)cn4C)n2)c(OC)cc1N(C)CCN(C)C	3680

// next entry
# IC50 lookup, item C=CC(=O)Nc1cc(Nc2nccc(-n3nc(N(C)C)c4ccsc43)n2)c(OC)cc1N(C)CCN(C)C
2210

* * *

Biological target: INSR (Homo sapiens, UniProt P06213)
Construct: purchased CARNA BIOSCIENCE 08-142
Sequence (P06213 1005-1382 limits assumed): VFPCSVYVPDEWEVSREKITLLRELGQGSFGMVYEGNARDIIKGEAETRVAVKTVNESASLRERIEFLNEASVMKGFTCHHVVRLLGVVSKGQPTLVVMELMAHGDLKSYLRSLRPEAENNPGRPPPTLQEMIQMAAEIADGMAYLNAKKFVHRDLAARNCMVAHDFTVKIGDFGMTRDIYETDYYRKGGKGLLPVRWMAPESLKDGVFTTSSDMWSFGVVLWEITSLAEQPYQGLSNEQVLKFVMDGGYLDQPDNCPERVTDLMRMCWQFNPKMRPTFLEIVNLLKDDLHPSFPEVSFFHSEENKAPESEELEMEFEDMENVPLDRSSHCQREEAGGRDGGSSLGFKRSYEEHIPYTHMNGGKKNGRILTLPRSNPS
Test: INSR inhibition assay (Caliper mobility shift)
Format: biochemical
Details: enzyme assay
// values below are reported IC50
Give the number; nM is assumed, so skip it.

Worked cases, answers included:
C=CC(=O)Nc1cc(Nc2nccc(-n3nc(N(C)C)c4ncccc43)n2)c(OC(F)F)cc1N(C)CCN(C)C 1750
C=CC(=O)Nc1cc(Nc2nccc(-n3nc(N(C)C)c4cc(Cl)sc43)n2)c(OC)cc1N(C)CCN(C)C 2310

Would you kindly share the measured IC50 for C=CC(=O)Nc1cc(Nc2nccc(-c3cc(C#N)cc4c3ccn4C)n2)c(OC)cc1N(C)CCN(C)C ?
965

For the compound C=CC(=O)Nc1cc(Nc2nccc(-n3nc(N(C)C)c4ccccc43)n2)c(OC(F)F)cc1N(C)CCN(C)C , what IC50 is on record?
968

* * *

Assay: Mouse in vivo PK study
Conditions: mouse, plasma; male CD1 mice, 2 mg/kg IV; read-out: T1/2 (IV) (converted)
experimental-readout: half-life (h)
Report only the number, with the unit h understood.

Please report the recorded half-life for C=CC(=O)Nc1cc(Nc2nccc(-c3cc(C#N)c4c(c3)c(C)cn4C)n2)c(OC)cc1N(C)CCN(C)C [Example 2] .
1.5

* * *

Recorded AUC values for a group of compounds are listed next.
Experiment: Mouse in vivo PK study
Details: mouse, plasma; male CD1 mice, 10 mg/kg PO
Structures can show the parent of a compound that is named as a salt.
// note: answer is a bare numeric in ng·h/mL

For orientation, consider the following solved cases.
compound	numeric-result
C=CC(=O)Nc1cc(Nc2nccc(-c3cc(C#N)cc4c3ccn4C)n2)c(OC)cc1N(C)CCN(C)C	225
C=CC(=O)Nc1cc(Nc2nccc(-n3nc(N(C)C)c4cc(Cl)sc43)n2)c(OC)cc1N(C)CCN(C)C	784

Sample [2H]C([2H])([2H])N(CCN(C)c1cc(OC)c(Nc2nccc(-c3cc(C#N)c4c(c3)c(C)cn4C)n2)cc1NC(=O)C=C)C([2H])([2H])[2H] [Example 27, mesylate] — what was its AUC?
1040

Given the entry C=CC(=O)Nc1cc(Nc2nccc(-c3cnc4c(c3)c(C)cn4C)n2)c(OC)cc1N(C)CCN(C)C , report its measured AUC.
641

Name the recorded AUC for C=CC(=O)Nc1cc(Nc2nccc(-c3cc(C#N)c4c(c3)c(C)cn4C)n2)c(OC)cc1N(C)CCN(C)C .
976

Which AUC value belongs to C=CC(=O)Nc1cc(Nc2nccc(-c3cc(C#N)cc4c3cnn4C)n2)c(OC)cc1N(C)CCN(C)C ?
719

Quick one: AUC for C=CC(=O)Nc1cc(Nc2nccc(-c3cnc4c(c3)c(Cl)cn4C)n2)c(OC)cc1N(C)CCN(C)C ?
486
